These entries and their values trace back to patent US8785459B2.

- System: A549
- assay.name: Anti-proliferative activity, CellTiter-96 assay, A549
- Type: cell-based
- condition.summary: Homo sapiens, A549 cells, 72 hours incubation
- Method: Antiproliferative Activity The anti-proliferative activities of the compounds with formula (I) and formula (II) with respect to four human cancer cell lines (A549, A375, MDA-MB-231, and COLO205) were measured using the CellTiter™-96 assay kit (Promega) following the manufacturer's instructions. […] Cell viability was determined by measuring absorbance at 490 nm using EMax® microplate reader (Molecular Devices). Data were processed and analyzed using GraphPad Prism version 4.
The following molecules are listed with their measured IC50 values.

Sample records with IC50:
| structure.smiles | IC50 |
| --- | --- |
| NC(=O)c1cccc(-c2ccc3ncnc(Nc4cccc5[nH]ncc45)c3c2)c1 | > 50 µM |
| COc1cccc(-c2ccc3ncnc(Nc4cccc5[nH]ncc45)c3c2)c1F | > 50 µM |

Let us examine a further case.
Value of measured IC50 for the entry COc1cc(-c2cc3c(Nc4cccc(O)c4)ncnc3cc2OC)ccc1O : > 50 µM
